System: Candida albicans
Experiment: In vitro antifungal activity against Candida albicans CY 1002
Assay type: functional, organism-based
IC50 strictly less than 2 µg/mL = 1. Otherwise -1.

Completed entries (count: 3):
1. CCOP(=O)(OCC)OC1Cc2c(cccc2N(C)CC#CC#CC(C)(C)C)NC1=O (centres undefined)    -1
2. CN(C/C=C/C#CC(C)(C)C)c1cccc2c1CCC(=O)N2    1
3. CCC#CC#CCN(C)c1cccc2c1CCC(=O)N2    -1

API: query returns whether the compound falls strictly under 2 µg/mL in IC50. Query: CN(CC#CC#CC(C)(C)O)c1cccc2c1CCC(=O)N2
-1

In the record for CN(Cc1ccc(C#CC(C)(C)C)cc1)c1cccc2c1CCC(=O)N2 , is IC50 less than 2 µg/mL?
-1

Problem: For the compound CC(C)[C@@H](N)C(=O)OC1Cc2c(cccc2N(C)CC#CC#CC(C)(C)C)NC1=O (some centres undefined) , is IC50 under 2 µg/mL?
1

Is IC50 of CN(CC#CC#CC(C)(C)C)c1cccc2c1CCC(=O)N2 strictly below 2 µg/mL?
1

Does this compound meet the criterion IC50 < 2 µg/mL? CN(CC#CC#CC(C)(C)C)c1cccc2c1CC(O)C(=O)N2 (centres undefined)
1

Here's an entry: CN(C/C=C\C#CC(C)(C)C)c1cccc2c1CCC(=O)N2 . Is its IC50 below 2 µg/mL?
-1

# strict comparison: is reported IC50 < 2 µg/mL? input = CC(C)(C)C#C/C=C/CNc1cccc2nc(O)ccc12
-1

###

Biological target: Chitin synthase 1 (Candida albicans)
Sequence (P23316 whole entry): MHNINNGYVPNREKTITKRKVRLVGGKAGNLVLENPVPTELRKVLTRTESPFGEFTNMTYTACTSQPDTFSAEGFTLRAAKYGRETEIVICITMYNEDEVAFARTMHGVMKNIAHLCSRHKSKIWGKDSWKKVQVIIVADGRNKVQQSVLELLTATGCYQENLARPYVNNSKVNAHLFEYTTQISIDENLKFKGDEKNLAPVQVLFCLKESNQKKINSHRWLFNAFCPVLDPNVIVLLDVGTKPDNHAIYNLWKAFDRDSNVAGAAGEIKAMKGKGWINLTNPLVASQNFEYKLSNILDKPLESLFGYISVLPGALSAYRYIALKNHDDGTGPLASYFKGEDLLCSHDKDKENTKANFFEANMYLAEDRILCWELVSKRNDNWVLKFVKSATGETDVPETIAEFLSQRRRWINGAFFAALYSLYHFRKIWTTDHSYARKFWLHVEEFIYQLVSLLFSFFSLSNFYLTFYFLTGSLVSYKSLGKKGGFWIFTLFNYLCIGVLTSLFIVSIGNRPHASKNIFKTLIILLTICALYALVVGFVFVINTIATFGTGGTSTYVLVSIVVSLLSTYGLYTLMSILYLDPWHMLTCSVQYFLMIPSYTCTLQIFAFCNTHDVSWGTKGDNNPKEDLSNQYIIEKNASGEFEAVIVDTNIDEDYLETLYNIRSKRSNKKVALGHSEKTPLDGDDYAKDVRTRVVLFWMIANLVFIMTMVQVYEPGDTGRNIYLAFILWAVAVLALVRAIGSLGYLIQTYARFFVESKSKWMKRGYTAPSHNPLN
Assay: Inhibitory of Candida albicans chitin synthase 1
test_readout: IC50
Just the number plus its unit, please.

Look over these answered cases.
1) CC(C)(C)C#C/C=C/CN(c1cccc2c1CCC(=O)N2)S(C)(=O)=O    391 nM
2) CN(CC#CC#CC(C)(C)O)c1cccc2c1CCC(=O)N2    213 nM

Report IC50 for CCN(C/C=C/C#CC(C)(C)C)c1cccc2c1CCC(=O)N2
0.9 nM

Return IC50 (reported value) for this compound: CC(C)(C)C#C/C=C/CNc1cccc2oc(=O)ccc12
12000 nM

Name the recorded IC50 of the item CN(CCCC#CC(C)(C)C)c1cccc2c1CCC(=O)N2 in your answer.
8.95 nM

Give reported IC50 value for CCCN(C/C=C/C#CC(C)(C)C)c1cccc2c1CCC(=O)N2
0.68 nM

###

System: Candida albicans
Assay: In vitro antifungal activity against Candida albicans CY 1002
Format: functional, organism-based
test_readout: IC50

1. CC(C)N(C/C=C/C#CC(C)(C)C)c1cccc2c1CCC(=O)N2    > 200 µg/mL

Provide one value: measured IC50 of CN(CC#CC#Cc1ccccc1)c1cccc2c1CCC(=O)N2
> 200 µg/mL

Hello, please tell me recorded IC50 for this one: CCCCN(C/C=C/C#CC(C)(C)C)c1cccc2c1CCC(=O)N2
> 200 µg/mL

Give IC50 for CC(C)(C)C#C/C=C/CNc1cccc2c1CCC(=O)N2
> 200 µg/mL

Answer with the recorded IC50 of CCN(C/C=C/C#CC(C)(C)C)c1cccc2c1CCC(=O)N2 only.
0.27 µg/mL

Supply IC50 value. Item: CN(CC#CC#CC(C)(C)C)c1cccc2c1CC(N)C(=O)N2 (stereo unspecified)
20 µg/mL

Determine its reported IC50: COC(C)(C)C#CC#CCN(C)c1cccc2c1CCC(=O)N2
3.5 µg/mL

Report IC50 for CC(C)(C)C#C/C=C/CN(c1cccc2c1CCC(=O)N2)S(C)(=O)=O
> 200 µg/mL

###

Test system: Candida albicans
Assay: In vitro antifungal activity against Candida albicans CY 1002
Format: functional, organism-based
Parameter IC50: see the listing below.

1) CCCN(C/C=C/C#CC(C)(C)C)c1cccc2c1CCC(=O)N2    > 200 µg/mL
2) CCCCCN(C/C=C/C#CC(C)(C)C)c1cccc2c1CCC(=O)N2    > 200 µg/mL
3) C[C@@H]([C@H](N)C(=O)N[C@H](C(=O)O)[C@H]1O[C@@H](n2ccc(=O)[nH]c2=O)[C@H](O)[C@@H]1O)[C@H](O)c1ccc(O)cn1    12 µg/mL

// fetch IC50 given entry CN(CCCC#CC(C)(C)C)c1cccc2c1CCC(=O)N2
> 200 µg/mL

###

Test system: Candida albicans
Experiment: In vitro antifungal activity against Candida albicans CY 1002
Type: functional, organism-based
Form field: IC50 (one value per entry).

1. OC(Cn1cncn1)(Cn1cncn1)c1ccc(F)cc1F    1.2 µg/mL
2. CC(=O)N(C/C=C/C#CC(C)(C)C)c1cccc2c1CCC(=O)N2    > 200 µg/mL

Consider now this further compound.
For the compound CC(C)(C)C#C/C=C/CN(Cc1ccccc1)c1cccc2c1CCC(=O)N2 , give its reported IC50.
> 200 µg/mL

Hey, just so you know, these numbers are from ChEMBL document CHEMBL1133216.
